Target: WT AChE1 (Culex pipiens, UniProt Q86GC8)
Sequence (Q86GC8 37-702): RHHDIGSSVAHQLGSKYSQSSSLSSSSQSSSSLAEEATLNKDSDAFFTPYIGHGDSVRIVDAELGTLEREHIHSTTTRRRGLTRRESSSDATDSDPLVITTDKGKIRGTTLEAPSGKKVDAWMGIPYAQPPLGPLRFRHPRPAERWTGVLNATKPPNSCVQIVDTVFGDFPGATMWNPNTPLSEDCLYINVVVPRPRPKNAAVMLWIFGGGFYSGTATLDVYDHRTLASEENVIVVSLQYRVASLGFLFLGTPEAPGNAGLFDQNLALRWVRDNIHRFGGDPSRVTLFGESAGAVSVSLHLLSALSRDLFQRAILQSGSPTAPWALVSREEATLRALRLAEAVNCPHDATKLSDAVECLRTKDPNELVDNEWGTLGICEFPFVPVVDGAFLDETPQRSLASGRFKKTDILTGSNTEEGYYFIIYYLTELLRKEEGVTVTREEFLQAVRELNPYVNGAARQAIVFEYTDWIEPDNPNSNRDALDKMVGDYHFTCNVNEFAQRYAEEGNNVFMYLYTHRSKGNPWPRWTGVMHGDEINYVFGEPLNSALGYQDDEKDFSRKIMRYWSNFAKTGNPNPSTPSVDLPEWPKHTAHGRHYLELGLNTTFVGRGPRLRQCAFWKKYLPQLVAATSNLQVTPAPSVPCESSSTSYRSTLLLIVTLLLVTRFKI
Assay: AChE assay (Ellman), dose-response on recombinant WT AChE1
Format: biochemical
Set-up: made in house; host or cells: Drosophila S2 cells
Settings: recombinant wild-type C. pipiens AChE1; 15 min incubation; acetylthiocholine; read-out: IC50 WT
Experimental: Production of C. pipiens WT and mutated AChE1s in Drosophila S2 cells was already described. The chemical library (ChemBridge, 3,000 compounds) screening was performed in duplicate on G119S recombinant AChE1. Chemicals were made soluble in ethanol or dimethylsulphoxide (DMSO), and then diluted at 300 µM in ethanol for storage. […] IC50 was also measured on AChE1 from susceptible and resistant mosquito larvae extracts.
Readings of IC50 for the listed compounds
Measured endpoint: IC50 (µM)

Compound	Measured endpoint	Result number
Cc1ccc(C=C2C(=O)NC(=O)N(C3CCCCC3)C2=O)o1	IC50	12.6
Cc1ccc(C=C2C(=O)NC(=S)N(c3cccc(Cl)c3)C2=O)o1	IC50	11.8
Cc1ccc(N2C(=O)NC(=O)C(=Cc3ccc(C)o3)C2=O)cc1	IC50	111
O=C1NC(=O)N(c2ccccc2)C(=O)C1=Cc1ccc(N2CCCCC2)o1	IC50	124
COc1ccc(N2C(=O)NC(=O)C(=Cc3ccc(C)o3)C2=O)cc1	IC50	592
O=C1NC(=O)N(c2ccccc2)C(=O)C1=Cc1ccc(-c2ccccc2C(=O)O)o1	IC50	45.7
Cc1ccc(N2C(=O)C(=Cc3ccc(C)o3)C(=O)NC2=S)cc1	IC50	1.3
CCN(CC)c1ccc(C=C2C(=O)N(C)C(=O)N(C)C2=O)o1	IC50	720
CN1C(=O)C(=Cc2ccc(N3CCCCC3)o2)C(=O)N(C)C1=O	IC50	97
N=C1NC(=O)C(=Cc2ccco2)C(=O)N1c1ccccc1	IC50	56
Cc1ccc(C=C2C(=O)NC(=S)N(CC3CCCO3)C2=O)o1 (centres unmarked)	IC50	2.1
O=C1NC(=O)N(c2ccccc2)C(=O)C1=Cc1ccc(-c2cccc(C(=O)O)c2)o1	IC50	6.7
Cc1ccc(C=C2C(=O)NC(=O)N(c3ccccc3C)C2=O)o1	IC50	1.4
Cc1ccc(C=C2C(=O)NC(=S)N(c3ccc(Br)cc3)C2=O)o1	IC50	2120
Cc1ccc(C=C2C(=O)NC(=S)N(c3ccc(C(=O)O)cc3)C2=O)o1	IC50	0.5
Cc1ccc(C=C2C(=O)NC(=S)N(c3ccc(F)cc3)C2=O)o1	IC50	490
COc1ccccc1N1C(=O)C(=Cc2ccc(C)o2)C(=O)NC1=S	IC50	2.1
Cc1ccc(C=C2C(=O)NC(=O)N(c3ccccc3)C2=O)o1	IC50	29.4
CCOC(=O)c1ccc(-c2ccc(C=C3C(=O)NC(=O)N(c4ccccc4)C3=O)o2)cc1	IC50	4.9
CCCCN1C(=O)C(=Cc2ccc(C)o2)C(=O)NC1=S	IC50	12.1
